- system_under_test: recombinant human SOS1 polypeptide (amino acids 560-1049) (Homo sapiens, UniProt Q07889)
- Construct: corresponding to amino acids 560-1049, expressed in E. Coli; His (N); TEV site (N)
- Sequence (Q07889 560-1049): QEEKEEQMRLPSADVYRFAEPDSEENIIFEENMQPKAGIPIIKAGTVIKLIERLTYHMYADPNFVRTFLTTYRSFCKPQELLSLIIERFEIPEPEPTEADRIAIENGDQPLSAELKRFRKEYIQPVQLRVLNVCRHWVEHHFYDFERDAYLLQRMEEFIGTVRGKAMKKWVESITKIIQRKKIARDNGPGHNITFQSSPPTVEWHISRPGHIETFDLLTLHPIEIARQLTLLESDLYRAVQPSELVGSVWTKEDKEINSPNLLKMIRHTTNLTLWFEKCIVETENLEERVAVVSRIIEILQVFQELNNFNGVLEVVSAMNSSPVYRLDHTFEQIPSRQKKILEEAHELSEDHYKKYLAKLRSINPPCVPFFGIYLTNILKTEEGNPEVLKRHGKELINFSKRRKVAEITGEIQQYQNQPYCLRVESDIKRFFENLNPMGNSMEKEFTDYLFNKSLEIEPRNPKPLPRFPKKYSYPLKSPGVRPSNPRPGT
- experiment_notes: HTRF displacement assay, binding to SOS1
- applied_conditions: HTRF displacement of Cy5 labelled tracer, 1-hour incubation, Morrison equation
measured_metric: pKi
Formally, pKi is defined as -log10 of the concentration c, with c in mol/L.

Recorded pKi, per entry:
Cc1c([C@@H](C)Nc2n[nH]c(=O)c3ccc(N4CCOCC4)cc23)cccc1C(F)(F)F | 7.22
CNCc1ccccc1-c1csc([C@@H](C)Nc2n[nH]c(=O)c3ccc(N4CCOCC4)cc23)c1 | 8.00
Cc1c([C@@H](C)Nc2nn(C)c(=O)c3ccc(N4CCOCC4)cc23)cccc1C(F)(F)F | 5.52

Field: next compound
For recombinant human SOS1 polypeptide (amino acids 560-1049) (Homo sapiens, UniProt Q07889), give pKi of the listed compound: CNCc1ccccc1-c1csc([C@@H](C)Nc2nn(C)c(=O)c3ccc(N4CCOCC4)cc23)c1
7.85
